PROTOCOL_DETAILS: qHTS RealTime-Glo MT Cell Viability Assay in HEK293 cells - 40 hour (AID 1224874); further: on the % scale 0 is the no-effect control and ±100 the full control effect; nearly all actives have a fitted effect of over 50% in size
CONDITION_CONTEXT: RealTime-Glo luminescence; hits give low values
Results filed as inconclusive are left out.
Below, each entry is listed alongside its reported max response.
Please give a number only; it is taken to be in %.

C[C@H]1CNCCc2ccc(Cl)cc21 : -6.61

Prompt line: GET /values?readout=max response&item= COc1cc(CC(C)N)cc2c1OCO2 (stereo not drawn)
Response line: -17.7

Prompt line: GET /values?readout=max response&item= c1ccc(CN2CCNCC2)cc1
Response line: 3.29

Prompt line: GET /values?readout=max response&item= CC(=O)C(C)(C)C
Response line: 8.72

Prompt line: GET /values?readout=max response&item= COc1c(C(C)(C)C)cc([N+](=O)[O-])c(C)c1[N+](=O)[O-]
Response line: 1.56

====

SYSTEM: Aromatase (Homo sapiens)
PROTOCOL_DETAILS: qHTS assay to identify aromatase inhibitors (AID 743083); further: on the % scale 0 is the no-effect control and ±100 the full control effect; nearly all actives have a fitted effect of over 55% in size
CONDITION_CONTEXT: MCF-7 aro ERE, testosterone-driven ERE luciferase, 24 h; series mostly up to 70.3 µM
Inconclusive results are not listed. Active and inactive are the calls of the source. Calls come from the whole dose curve; as a rule, active = well fitted inhibition curve with a large enough effect in the repeat runs; inconclusive = weak or mixed curves; inactive = no such curve, though single readings can be large or run the other way.
Pick from 1 (yes) for active, 0 (no) for inactive when you respond.

Recorded results for 2 compounds are shown here.
Cn1cc[n+](C)c1 (tested in a mixture with another compound) : 0 (no)
O=S(=O)(Cl)c1ccccc1 : 0 (no)

Here is another compound to look at.
Prompt line: Assay outcome for O=C=Nc1ccc(Cl)cc1 : what was it?
Response line: 0 (no)

====

PROTOCOL_DETAILS: A CellTox Green Cytotoxicity Assay to monitor cytotoxicity in HepG2 cells - 8 hour (AID 1224890); further: on the % scale 0 is the no-effect control and ±100 the full control effect; nearly all actives have a fitted effect of over 45% in size
CONDITION_CONTEXT: CellTox Green fluorescence; series mostly up to 76.8 µM
Inconclusive results are not listed. Calls of active or inactive are those of the source. Calls come from the whole dose curve; as a rule, active = well fitted activation curve with a large enough effect in the repeat runs; inconclusive = weak or mixed curves; inactive = flat fitted curve, though single readings scatter.
Pick from yes = active, no = inactive when you respond.

CCCCCCCCCCOC(=O)c1ccccc1C(=O)OCCCCCCCCCC : no
CC(c1ccc(O)cc1)(c1ccc(O)cc1)c1ccc(O)cc1 : no
CC(=O)NC1CCSC1=O (stereo not drawn) : no

Prompt line: Assay outcome for CC(C)N(C(=O)COc1nnc(C(F)(F)F)s1)c1ccc(F)cc1 : what was it?
Response line: no

====

SYSTEM: Estrogen receptor (Homo sapiens)
PROTOCOL_DETAILS: qHTS assay to identify small molecule antagonists of the estrogen receptor alpha (ER-alpha) signaling pathway using the BG1 cell line in the presence of 0.1 nM 17-beta-estradiol (AID 1259244); further: nearly all actives have a fitted effect of over 50% in size
CONDITION_CONTEXT: VM7Luc4E2 (BG1) ERE-luciferase, antagonist mode, 0.1 nM E2, 22 h; series mostly up to 92.4 µM
Records with an inconclusive call do not appear. The source made the active and inactive calls. The call rests on the fitted dose curve; in most records, active means well fitted inhibition curve with a large enough effect in the repeat runs; inconclusive means weak or mixed curves; inactive means no such curve, though single readings can be large or run the other way.
Pick from yes = active, no = inactive when you respond.

CC(C)N(C(=O)COc1nnc(C(F)(F)F)s1)c1ccc(F)cc1 : no
O=C(O)COc1ccc(Cl)cc1 : no
CN(N=O)c1ccc([N+](=O)[O-])cc1 : no
NC(=O)C(Cl)(Cl)Cl : no
CCCC(=O)Cl : no
CCOP(=S)(Oc1ccc([N+](=O)[O-])cc1)c1ccccc1 (centres undefined) : no
CC(=O)NC1CCSC1=O (centres undefined) : no
Clc1ccc(C2(Cn3cncn3)CC(Br)CO2)c(Cl)c1 (centres undefined) : yes
O=[N+]([O-])c1cc(C(F)(F)F)cc([N+](=O)[O-])c1Cl : no
C=CC(=O)NCNC(=O)C=C : no

Prompt line: Assay outcome for CCCCC(O)(Cn1cncn1)c1ccc(Cl)cc1Cl (centres undefined) : what was it?
Response line: yes

Prompt line: Assay outcome for ClCc1cccc(Cl)c1 : what was it?
Response line: no

Prompt line: Assay outcome for C=CC(=O)OCCCCO : what was it?
Response line: no

Prompt line: Assay outcome for C[N+](C)(C)CCCl : what was it?
Response line: no

====

PROTOCOL_DETAILS: qHTS assay to identify small molecule antagonists of the estrogen related receptor signaling pathway with the pleiotropic PPARgamma coactivator (PGC) from Tox21 10K library - cell viability counter screen (AID 1224840); further: nearly all actives have a fitted effect of over 40% in size
CONDITION_CONTEXT: PGC/ERR reporter cells viability, CellTiter-Fluor, 17.5 h; series mostly up to 92.4 µM
Records with an inconclusive call do not appear. The source made the active and inactive calls. Calls come from the whole dose curve; as a rule, active = well fitted cell-killing curve with a large enough effect in the repeat runs (not every such curve was filed as active); inconclusive = weak or mixed curves, or effect the other way; inactive = no such curve, though single readings can be large or run the other way.
Pick from active, inactive when you respond.

CCCCN(N=O)C(=N)N[N+](=O)[O-] : inactive
O=C(Nc1ccccc1)Nc1cnns1 : inactive
S=C=NCc1ccccc1 : inactive
CC(C)N(C(=O)COc1nnc(C(F)(F)F)s1)c1ccc(F)cc1 : inactive
NC(=O)CI : inactive
O=C(OC1CCCCC1)c1ccccc1C(=O)OC1CCCCC1 : inactive
CC(C)(C)c1cc([N+](=O)[O-])cc([N+](=O)[O-])c1O : active
Cc1ccccc1CCl : inactive
CCO[C@H]1O[C@@H]2OC3(C)CC[C@H]4[C@H](C)CC[C@@H]([C@H]1C)[C@@]24OO3 : inactive
CCCCN=C=O : inactive

Prompt line: Assay outcome for COC(=O)C(C)N(C(=O)Cc1ccccc1)c1c(C)cccc1C (stereo not drawn) : what was it?
Response line: inactive

Prompt line: Assay outcome for c1ccc(CN2CCNCC2)cc1 : what was it?
Response line: inactive

Prompt line: Assay outcome for CCOP(=S)(Oc1ccc([N+](=O)[O-])cc1)c1ccccc1 (stereo not drawn) : what was it?
Response line: inactive

====

PROTOCOL_DETAILS: qHTS assay to identify small molecule antagonists of the estrogen related receptor (ERR) signaling pathway from Tox21 library (AID 1224848); further: nearly all actives have a fitted effect of over 50% in size
CONDITION_CONTEXT: ERR reporter cell line, luciferase antagonist mode, 18 h; series mostly up to 92.4 µM
Records with an inconclusive call do not appear. Active and inactive are the calls of the source. The call rests on the fitted dose curve; in most records, active means well fitted inhibition curve with a large enough effect in the repeat runs; inconclusive means weak or mixed curves; inactive means no such curve, though single readings can be large or run the other way.
Pick from Yes for active, No for inactive when you respond.

Recorded results for 6 compounds are shown here.
O=C(N[C@H](c1ccccc1)[C@@H]1CN2CCC1CC2)c1c(Cl)ccc(C(F)(F)F)c1Cl : Yes
O=C1CN=C(c2ccccc2)c2cc(Cl)ccc2N1CC1CC1 : Yes
O=C(CCl)c1ccc(Cl)cc1Cl : No
Sc1ccccc1Cl : No
O=C(Nc1ccccc1)Nc1ccnc(Cl)c1 : Yes
CCCCOC(=O)c1ccccc1C(=O)OCc1ccccc1 : No

Here is another compound to look at.
Prompt line: Assay outcome for COc1ccc(-c2ccccc2)cc1NNC(=O)OC(C)C : what was it?
Response line: Yes

====

SYSTEM: Aryl hydrocarbon receptor (Homo sapiens)
PROTOCOL_DETAILS: qHTS assay to identify small molecule that activate the aryl hydrocarbon receptor (AhR) signaling pathway (AID 743085); further: nearly all actives have a fitted effect of over 15% in size;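 on activation: HG2L7.5c1 human HepG2 liver cells with stably integrated DRE-driven firefly reporter; on the % scale 0 is the no-effect control and ±100 the full control effect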
CONDITION_CONTEXT: HepG2 AhR-luc (HG2L7.5c1), luciferase, 24 h; series mostly up to 70.3 µM
Results filed as inconclusive are left out. Active and inactive are the calls of the source. Calls follow the shape of the dose curve; as a rule, active = well fitted activation curve with a large enough effect in the repeat runs; inconclusive = weak or mixed curves; inactive = no such curve, though single readings can be large or run the other way.
Pick from active, inactive when you respond.

Recorded results for 3 compounds are shown here.
CCCC(=O)Cl : inactive
ClC=C(Cl)Cl : inactive
CCOc1nc(F)cc2nc(S(=O)(=O)Nc3c(Cl)cccc3Cl)nn12 : inactive

Here is another compound to look at.
Prompt line: Assay outcome for CC(C)=CCOc1c2occc2cc2ccc(=O)oc12 : what was it?
Response line: active

====

PROTOCOL_DETAILS: qHTS assay to identify small molecule antagonists of the estrogen related receptor signaling pathway with the pleiotropic PPARgamma coactivator (PGC) from Tox21 10K library (AID 1224841); further: actives are mostly falling curves and most rising ones were filed inactive; nearly all actives have a fitted effect of over 50% in size
CONDITION_CONTEXT: PGC/ERR reporter cell line, ONE-Glo luciferase, 18 h; series mostly up to 92.4 µM
Records with an inconclusive call do not appear. The source made the active and inactive calls. The rule behind the calls is not given here.
Pick from YES = active, NO = inactive when you respond.

Prompt line: Assay outcome for Cc1ccc(N)cc1C : what was it?
Response line: NO

Prompt line: Assay outcome for COCC(C)N(C(=O)CCl)c1c(C)csc1C (stereo not given) : what was it?
Response line: YES

Prompt line: Assay outcome for C=CC(C)=O : what was it?
Response line: NO

Prompt line: Assay outcome for CC(Cl)C(C)Cl (stereo not given) : what was it?
Response line: NO

Prompt line: Assay outcome for [O-][Cl+]O : what was it?
Response line: NO

Prompt line: Assay outcome for S=C=NCc1ccccc1 : what was it?
Response line: NO

Prompt line: Assay outcome for C/C(=C\c1ccccc1)[N+](=O)[O-] : what was it?
Response line: YES

Prompt line: Assay outcome for Clc1ccc(C2(Cn3cncn3)CC(Br)CO2)c(Cl)c1 (stereo not given) : what was it?
Response line: YES

Prompt line: Assay outcome for O=C(NC(=O)c1c(F)cccc1F)Nc1ccc(OC(F)(F)C(F)OC(F)(F)F)c(Cl)c1 (stereo not given) : what was it?
Response line: NO

====

SYSTEM: Luciferin 4-monooxygenase (Photinus pyralis) (UniProt P08659)
Sequence (P08659 whole entry, looked up): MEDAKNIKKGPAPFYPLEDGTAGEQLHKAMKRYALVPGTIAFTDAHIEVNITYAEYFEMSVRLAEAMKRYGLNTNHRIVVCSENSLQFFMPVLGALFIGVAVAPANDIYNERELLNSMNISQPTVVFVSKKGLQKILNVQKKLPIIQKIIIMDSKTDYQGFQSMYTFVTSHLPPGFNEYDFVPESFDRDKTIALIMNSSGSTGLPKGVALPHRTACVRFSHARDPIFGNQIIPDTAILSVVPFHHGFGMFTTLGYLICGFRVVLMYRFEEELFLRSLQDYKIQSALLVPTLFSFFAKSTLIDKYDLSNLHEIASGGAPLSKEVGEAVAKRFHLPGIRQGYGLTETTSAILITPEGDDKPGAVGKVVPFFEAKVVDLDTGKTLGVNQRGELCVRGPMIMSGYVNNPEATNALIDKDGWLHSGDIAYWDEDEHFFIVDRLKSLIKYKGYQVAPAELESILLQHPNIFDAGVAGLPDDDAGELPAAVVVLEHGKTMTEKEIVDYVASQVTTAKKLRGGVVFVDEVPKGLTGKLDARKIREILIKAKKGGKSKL
PROTOCOL_DETAILS: qHTS assay to identify small molecule inhibitors of firefly luciferase (AID 1224835); further: nearly all actives have a fitted effect of over 25% in size
CONDITION_CONTEXT: purified P. pyralis luciferase, luminescence inhibition; series mostly up to 115 µM
Records with an inconclusive call do not appear. The source made the active and inactive calls. Calls come from the whole dose curve; as a rule, active = well fitted inhibition curve with a large enough effect in the repeat runs; inconclusive = weak or mixed curves; inactive = flat fitted curve, though single readings scatter.
Pick from T for active, F for inactive when you respond.

Recorded results for 8 compounds are shown here.
Clc1cccc(SC2CCNCC2)n1 : F
O=C(O)C1(c2ccc3c(c2)OC[C@H](Cc2ccc(-c4ccccc4)cc2)[C@H]3O)CCCC1 : T
COC(=O)c1cncn1C(C)c1ccccc1 (centres undefined) : F
CCCN(CC1CC1)c1c([N+](=O)[O-])cc(C(F)(F)F)cc1[N+](=O)[O-] : F
CC(=O)C(C)(C)C : F
Nc1nc(N)nc(N)n1 : F
C=CC(C)=O : F
Brc1ccc(Oc2ccccc2)cc1 : F

Prompt line: Assay outcome for Cc1ccc(N)cc1C : what was it?
Response line: F

FYI, the data here is from PubChem BioAssay (Tox21).
